target: THP-1 macrophages; test: Phagocytosis of IgG-opsonized sheep RBCs by THP-1 macrophages; conditions: dose-response; sheep RBCs engulfed by THP-1 macrophages; read-out: Ki-blebb for blebbistatin inhibition of phagocytosis
MEASURE: pKi
The read-out pKi is expressed as -log10 of concentration in moles per litre.

input: Endpoint output: pKi of Cc1ccc2c(c1)C(=O)C1(O)CCN(c3ccccc3)C1=N2 (stereo not shown) [blebbistatin] . Value?
output: 5.30
